# TARGET_SYSTEM: recombinant NS5B genotype 4a (Hepatitis C virus genotype 4a, UniProt O39929)
# ASSAY_INFO: NS5B polymerase assay, genotype 4a
MEASURED_PARAMETER: pIC50
Note: pIC50 values are expressed as the negative base-10 logarithm of concentration in M.

pIC50 measured on C[C@@]1(F)[C@H](O)[C@@H](COP(=O)(O)OP(=O)(O)OP(=O)(O)O)O[C@H]1n1cnc2c(=O)[nH]c(N)nc21 [PSI-352666] = 5.38

====

# Test system: CEM cells
# ASSAY_INFO: Mitochondrial COXII DNA and ribosomal DNA by real time PCR, CEM
# Type: cell-based, human
# COND: read-out: CC90 rDNA; CEM cells, fourteen days
MEASURED_PARAMETER: CC90

# molecule COc1nc(N)nc2c1ncn2[C@@H]1O[C@H](COP(=O)(N[C@@H](C)C(=O)OC(C)C)Oc2ccccc2)[C@@H](O)[C@@]1(C)F (stereo partly shown) [PSI-353661] ; its CC90 = > 100 µM

====

# ASSAY_INFO: 8-day MTS cytotoxicity assay, CEM
# Format: cell-based, human
# COND: human, CEM cells
MEASURED_PARAMETER: CC50 at 8 days

Reported CC50 at 8 days ( `Nc1ccn([C@@H]2O[C@H](CO)[C@@H](O)C2(F)F)c(=O)n1` ) = < 1 µM

====

# ASSAY_INFO: 8-day MTS cytotoxicity assay, BxPC3
# Type: cell-based, human
# COND: human, BxPC3 cells
MEASURED_PARAMETER: CC50 at 8 days

// `Nc1ccn([C@@H]2O[C@H](CO)[C@@H](O)C2(F)F)c(=O)n1` : CC50 at 8 days value = < 1 µM

====

# ASSAY_INFO: 8-day MTS cytotoxicity assay, BxPC3
# Assay type: cell-based, human
# COND: human
MEASURED_PARAMETER: CC50 at 8 days
Reply with the number, then its unit.

Per the records, this compound ( COc1nc(N)nc2c1ncn2[C@@H]1O[C@H](COP(=O)(N[C@@H](C)C(=O)OCC(C)(C)C)Oc2cccc3ccccc23)[C@@H](O)[C@@]1(C)O (stereo partly shown) [INX-08189] ) has CC50 at 8 days equal to 2.81 µM

====

# Tested on: primary human hepatocytes
# ASSAY_INFO: Metabolism of [3H]-PSI-353661 in primary human hepatocytes
# Type: in vitro ADME
# COND: continuous exposure to 5 μM [3H]-PSI-353661
MEASURED_PARAMETER: time to maximum intracellular concentration

>>> result("COc1nc(N)nc2c1ncn2[C@@H]1O[C@H](COP(=O)(O)N[C@@H](C)C(=O)O)[C@@H](O)[C@@]1(C)F")
"0.25 h"
>>> result("C[C@@]1(F)[C@H](O)[C@@H](COP(=O)(O)OP(=O)(O)O)O[C@H]1n1cnc2c(=O)[nH]c(N)nc21")
"1 to 2 h"
>>> result("COc1nc(N)nc2c1ncn2[C@@H]1O[C@H](CO)[C@@H](O)[C@@]1(C)F")
"0.5 to 1 h"
>>> result("COc1nc(N)nc2c1ncn2[C@@H]1O[C@H](COP(=O)(O)O)[C@@H](O)[C@@]1(C)F")
"0.5 to 1 h"
>>> result("C[C@@]1(F)[C@H](O)[C@@H](CO)O[C@H]1n1cnc2c(=O)[nH]c(N)nc21")
"0.5 to 1 h"

// next item, time to maximum intracellular concentration requested
Query `C[C@@]1(F)[C@H](O)[C@@H](COP(=O)(O)O)O[C@H]1n1cnc2c(=O)[nH]c(N)nc21` yields time to maximum intracellular concentration of 1 to 2 h
